System: dog STING (dSTING)
ASSAY_EXPLANATION: Dog differential scanning fluorimetry (DSF) assay, thermal shift of dog STING protein
Format: binding
RECORDED_CONDITIONS: DSF (dDSF); 100 μM compound, 3 μM dog STING protein; Tm with ligand minus Tm of protein alone
Measured Delta TM, listed per entry for reference.
Respond with the bare value in °C.

As a guide, the following entries are already answered.
Input line: Report measured Delta TM on dog STING (dSTING); entry: Cc1cccc2c(-c3c(F)ccc4nn(C)cc34)nn(-c3ccc(N4CC5CCC4CC5C(=O)O)nc3)c12 (single isomer, unassigned) [Example 28-3]
Output line: 37.1

Input line: Report measured Delta TM on dog STING (dSTING); entry: `CC(=O)N1CCN(c2ccc(-n3nc(-c4c(F)cc(F)c5nn(C)cc45)c4ccc(F)c(C)c43)cn2)CC1`
Output line: 31.3

Input line: Report measured Delta TM on dog STING (dSTING); entry: `Cc1cc(F)cc2c(-c3ccc(F)c4nn(C)cc34)nn(-c3ccc(N4C[C@@H]5[C@H](C4)[C@H]5C(=O)O)nc3)c12`
Output line: 21.7

Input line: Report measured Delta TM on dog STING (dSTING); entry: `CC(=O)N1C[C@@H]2C[C@H]1CN2c1ccc(-n2nc(-c3cccc4nn(C)c(F)c34)c3cccc(C)c32)cn1`
Output line: 24.9

Next:
Input line: Report measured Delta TM on dog STING (dSTING); entry: Cc1cccc2c(-c3ccc(F)c4nn(C)c(F)c34)nn(-c3ccc(N4C[C@H]5C[C@@H]4C[C@@H]5C(=O)O)nc3)c12 (single isomer, unassigned)
Output line: 33.0

Input line: Report measured Delta TM on dog STING (dSTING); entry: Cc1cccc2c(-c3c(F)ccc4nn(C)cc34)nn(-c3ccc(N4CCOC(CC(=O)O)C4)nc3)c12 (stereo not drawn) [Example 26-1]
Output line: 31.0

====

TARGET_OR_TEST_SYSTEM: STING (Canis lupus familiaris)
Sequence (A0A8I3MH52 1-374): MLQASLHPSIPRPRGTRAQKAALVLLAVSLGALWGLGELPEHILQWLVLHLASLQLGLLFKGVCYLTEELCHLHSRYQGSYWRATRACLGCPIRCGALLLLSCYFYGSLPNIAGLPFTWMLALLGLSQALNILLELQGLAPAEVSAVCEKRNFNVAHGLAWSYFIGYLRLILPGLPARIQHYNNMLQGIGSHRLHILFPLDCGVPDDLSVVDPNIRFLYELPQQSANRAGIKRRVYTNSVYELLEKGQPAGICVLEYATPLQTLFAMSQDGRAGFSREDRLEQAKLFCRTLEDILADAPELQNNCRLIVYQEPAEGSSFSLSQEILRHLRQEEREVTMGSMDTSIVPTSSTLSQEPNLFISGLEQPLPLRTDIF
ASSAY_EXPLANATION: Dog whole blood (dWB) assay, IFNb secretion by ELISA
RECORDED_CONDITIONS: canine Interferon-beta (IFNb) ELISA, 4 h incubation at 37° C.
Procedure: For the detection of STING activation in physiological environment dog whole blood (dWB) was stimulated by the cyclic dinucleotide cGAMP or a test compound. Pathway activity was monitored by measuring the IFNb production. Compounds were delivered as 10 mM DMSO solution, diluted and transferred by using an Echo acoustic dispenser to the 384 well assay plate (Greiner #781182), pre-filled with 10 μl 1×HBSS in each well (10×HBSS (+Ca/+Mg), #14065-049, Gibco). […]
Measured log10 of EC50, listed per entry for reference.
Friendly reminder: values = log10 of EC50, unit nM.

As a guide, the following entries are already answered.
Input line: Report measured log10 of EC50 on STING (Canis lupus familiaris); entry: Cc1cccc2c(-c3cccc4nn(C)c(F)c34)nn(-c3ccc(N4CC5CCC4CC5C(=O)O)nc3)c12 (single isomer, unassigned) [Example 20-4]
Output line: 2.32

Input line: Report measured log10 of EC50 on STING (Canis lupus familiaris); entry: `Cc1cc(F)cc2c(-c3c(F)cc(F)c4nn(C)cc34)nn(-c3ccc(N4C[C@@H]5[C@H](C4)[C@H]5C(=O)O)nc3)c12`
Output line: 3.07

Input line: Report measured log10 of EC50 on STING (Canis lupus familiaris); entry: Cc1cccc2c(-c3c(F)cc(F)c4nn(C)cc34)nn(-c3ccc(N4C[C@H]5C[C@@H]4C[C@@H]5C(=O)O)nc3)c12 (single isomer, unassigned)
Output line: 2.30

Input line: Report measured log10 of EC50 on STING (Canis lupus familiaris); entry: `CC(=O)N1C[C@H]2C[C@@H]1CN2c1ccc(-n2nc(-c3c(F)ccc4nn(C)cc34)c3cccc(C)c32)cn1`
Output line: 2.00

Input line: Report measured log10 of EC50 on STING (Canis lupus familiaris); entry: Cc1cccc2c(-c3c(F)cc(F)c4nn(C)cc34)nn(-c3ccc(N4CC5CCC4CC5C(=O)O)nc3)c12 (single isomer, unassigned) [Example 48-4]
Output line: 2.23

Turning to the following compound.
Input line: Report measured log10 of EC50 on STING (Canis lupus familiaris); entry: `CC(=O)N1C[C@@H]2C[C@H]1CN2c1ccc(-n2nc(-c3cccc4nn(C)c(F)c34)c3cccc(C)c32)cn1`
Output line: 3.00

Source: patent US20240174641A1
